Value source: patent US20250320294A1

Target: human-CD45RO-ECD-His (human) (UniProt P08575)
Assay: ELISA, human-CD45RO-ECD-His-coated plates
Below, each entry is listed alongside its reported pEC50.
The quantity pEC50 is defined as the negative base-10 logarithm of the molar concentration.

// returns reported pEC50 for input anti-CD45 antibody clone 031 (antibody, V domains shown) VH: DVQLVESGGGLVQPGGSRKLSCAASGFTFSSFGMHWVRQAPEKGLEWVAYINSGSTTFYYADTVKGRFTISRDNPKNTLFLQMTSLGSEDTAMYYCARSATATWTMDYWGQGTSVTVSS VL: NIMMTQSPSSLAVSAGEKVTMSCKSSQSVFVSSNQKNYLAWYQQKPGQSPKLLIYWASTRESAVPDRFTGSGSGTDFTLTIGSVQAEDLAVYYCHQYLSSWTFGGGTKLEIK
9.86

// returns reported pEC50 for input anti-CD45 antibody clone 028 (antibody, V domains shown) VH: QVQLQQSGAELARPGASVKMSCKASGYTFTFYAILWVKQMPGQGLEWIGFINPSSGYTSYNQKFKDKATLTADKSSSTAYMQLSSLTSEDSAVYYCARDYGLDYWGQGTTLAVSS VL: DIVMTQAAPSVPVTPGESVSISCRSSKSLLHSNGNTYLYWFLQRPGQSPQLLIYRMSNLASGVPDRFSGSGSGTAFTLGISRVEAGDVGVYYCMQHLEYPFTFGSGTKLEIK
10.50

// returns reported pEC50 for input anti-CD45 antibody clone 042 (antibody, V domains shown) VH: EVQLQQSGAELVKPGASVKLSCTASGFNIKDTFMHWVKLRPEQGLEWIGRIDPANGYTKYDPRFQGKATIIADTSSNTAYLQLSSLTSEDTAVYYCASGEYYALDYWGQGTSVTVSS VL: DIVLTQSPASLTVSLGQRATISCRASKSVSTSGYSYMHWYQQKPGQPPKLLIYLASNLESGVPARFSGSGSGTDFTLNIHPVEEEDAATYYCQHNRELPYTFGGGTKLEIK
9.84
